Field: z-score. Provide a value for each of the compounds that follow.
- TARGET_ENTITY: NADPH oxidase 5 (Homo sapiens)
- TEST: NOX5-dependent H2O2 signal modulators, primary screen, NOX inhibitor project, cell-based, HEK293-NOX5, Amplex Red fluorescence (AID 1161)
- MEASUREMENT_PARAMETERS: HEK293-NOX5, ionomycin, 45 min, higher = more signal
Numbers only.

COMPOUND_STRUCTURE_STRING | z-score
CC(=O)OC[C@H]1O[C@@H](ON=C2[C@H]3CCn4c(=O)n(-c5ccccc5)c(=O)n4[C@H]3[C@H](O)[C@@H]3O[C@H]23)[C@H](OC(C)=O)[C@@H](OC(C)=O)[C@@H]1OC(C)=O | 0.187
CO[C@@H]1C=CCC(=O)N[C@@H](C)C(=O)OC[C@@H](OC)[C@H](C)C=CCC(=O)OC[C@H]1C | -0.367

Lab note: next compound to report on.
Recorded z-score of CO[C@H]1C[C@@H]2C[C@H](O)CC(CC(=O)O[C@@H](C=CCC(C)C)C[C@@H]3CC[C@H](C)[C@@H](C1)O3)O2 , please.
1.2

---

- Tested on: Noggin (protein binding on small-molecule microarray)
- TEST: Noggin binders on small-molecule microarray, primary screen, biochemical, 635/667 nm fluorescence (AID 1095);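 further: score merges 667 nm feature fluorescence with signal to noise over triplicate slides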
- MEASUREMENT_PARAMETERS: 635 nm fluorescence, higher = more signal
Label rule, in plain words: composite z-score of 0.5 and up is 1, under 0.5 is -1.

Item O=C1[C@H]2[C@H]3[C@H](O)[C@H](O)CC(=NOC[C@@H](O)COCc4ccco4)[C@@H]3CC[C@H]2C(=O)N1C1CCCCC1 with composite z-score of 0.5 or above?
1

Item CC(C)=NO[C@@H](C)c1cn([C@H](CO)Cc2ccccc2)nn1 with composite z-score of 0.5 or above?
1

Item CC(=O)OC[C@H]1O[C@H](CC=NOC(C)CN2CCCc3nc(C)c(C)cc32)C=C[C@@H]1OC(C)=O (stereo partly specified) with composite z-score of 0.5 or above?
1

Item COC(=O)CC=C1c2ccccc2[C@H](OC)[C@H]1C with composite z-score of 0.5 or above?
-1

---

- TEST: Plasmodium falciparum growth inhibition, primary screen, strain 3D7, DAPI fluorescence, 100 nL (AID 1184);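 further: parasites grown inside human red blood cells in medium with human serum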
- MEASUREMENT_PARAMETERS: P. falciparum 3D7 growth, 3 d, higher = more signal
Field: z-score. Provide a value for each of the compounds that follow.
Give bare numbers.

COMPOUND | z-score
CC(C)=CCCC(C)=CCON=C1C[C@@H](O)[C@@H](O)[C@@H]2[C@@H]3C(=O)N([C@@H](C)c4ccccc4)C(=O)[C@@H]3CC[C@@H]12 | -0.81
COc1ccc(COC(=O)NN=C2C[C@@H](O)[C@@H](O)[C@@H]3[C@@H]4C(=O)N([C@@H](C)c5ccccc5)C(=O)[C@@H]4CC[C@H]23)cc1 | -0.981

Could you report z-score for every entry in the following list?
1. C#CCCCON=C1C[C@@H](O)[C@@H](O)[C@@H]2[C@@H]3C(=O)N(C[C@@H]4CCCO4)C(=O)[C@@H]3CC[C@H]12
2. O=C1[C@H]2[C@H]3[C@H](O)[C@H](O)CC(=NOC[C@@H](O)COCc4ccco4)[C@@H]3CC[C@H]2C(=O)N1Cc1ccccc1
3. C=CC[C@@H]1C=C[C@H](ON=C[C@@H](NS(=O)(=O)c2ccc(C)cc2)[C@H](C)C=CCC(=O)OC)[C@@H](CO)O1
4. COc1ccc(OC[C@@H]2CC3[C@@H](c4ccc(Br)cc4)[C@H](C)CC[C@H]3C(=O)O2)cc1 (stereo not given in full)

1: 0.211; 2: -0.986; 3: -0.174; 4: 0.163

Could you report z-score for every entry in the following list?
1. CC(C)=CCCC(C)=CCON=C1C[C@@H](O)[C@@H](O)[C@@H]2[C@@H]3C(=O)N(c4cccc(Oc5ccccc5)c4)C(=O)[C@@H]3CC[C@H]12
2. COC(=O)[C@H](C)NC(=O)CCC1CC(OC(=O)NCc2cccc3ccccc23)CC2(CCCC(COC(=O)NCc3ccccc3)O2)O1 (stereo not given in full)
3. CCCNC(=O)OC[C@H]1O[C@H](CCON=C[C@@H](NS(=O)(=O)c2ccc(C)cc2)[C@H](C)C=CCC(=O)OC)C=C[C@@H]1Oc1ccc(OC)cc1
4. CCOC(=O)CCN1C(=O)[C@H]2[C@H]3[C@H](O)[C@H](O)CC(=NOCC=C(C)CCC=C(C)C)[C@@H]3CC[C@H]2C1=O

1. 0.395
2. -2.02
3. -0.862
4. 0.664

---

- System: PRMT1 (protein arginine N-methyltransferase 1)
- TEST: PRMT1 binders on small-molecule microarrays, primary screen, biochemical, small-molecule microarray, 635 nm fluorescence (AID 1088);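 further: binding of Prmt1 protein to compounds spotted on small-molecule microarray slides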
- MEASUREMENT_PARAMETERS: small-molecule microarray binding, higher = more signal
Field: composite z-score. Provide a value for each of the compounds that follow.
Give bare numbers.

Below, each entry is followed by its recorded composite z-score result.
COMPOUND | TARGET_ENTITY | METRIC_NAME | MEASUREMENT
CO[C@H]1COC(=O)CCC[C@H](C)[C@H](OC)COC(=O)CC=C[C@@H]1C | PRMT1 (protein arginine N-methyltransferase 1) | composite z-score | 1.12
CC(C)CON=C1C[C@@H](O)[C@@H](O)[C@@H]2[C@@H]3C(=O)N([C@@H](C)c4ccccc4)C(=O)[C@@H]3CC[C@@H]12 | PRMT1 (protein arginine N-methyltransferase 1) | composite z-score | -0.413
CC(=O)OC[C@H]1O[C@@H](ON=C(C)CCN2CCCCc3nc(C)c(C)cc32)[C@H](OC(C)=O)[C@@H](OC(C)=O)[C@@H]1OC(C)=O | PRMT1 (protein arginine N-methyltransferase 1) | composite z-score | 1.53
CC1(C)O[C@H]2OC([C@H](O)CON3C(=O)c4ccccc4C3=O)[C@H](O)[C@H]2O1 (stereo not given in full) | PRMT1 (protein arginine N-methyltransferase 1) | composite z-score | 0.318

Lab note: next compound to report on.
Recorded composite z-score of COc1ccc(COC(=O)NN=C2C[C@@H](O)[C@@H](O)[C@@H]3[C@@H]4C(=O)N([C@@H](C)c5ccccc5)C(=O)[C@@H]4CC[C@H]23)cc1 , please.
-0.517

---

- TARGET_ENTITY: E3 ubiquitin-protein ligase XIAP (Homo sapiens) (UniProt P98170)
- Sequence (P98170 whole entry, looked up): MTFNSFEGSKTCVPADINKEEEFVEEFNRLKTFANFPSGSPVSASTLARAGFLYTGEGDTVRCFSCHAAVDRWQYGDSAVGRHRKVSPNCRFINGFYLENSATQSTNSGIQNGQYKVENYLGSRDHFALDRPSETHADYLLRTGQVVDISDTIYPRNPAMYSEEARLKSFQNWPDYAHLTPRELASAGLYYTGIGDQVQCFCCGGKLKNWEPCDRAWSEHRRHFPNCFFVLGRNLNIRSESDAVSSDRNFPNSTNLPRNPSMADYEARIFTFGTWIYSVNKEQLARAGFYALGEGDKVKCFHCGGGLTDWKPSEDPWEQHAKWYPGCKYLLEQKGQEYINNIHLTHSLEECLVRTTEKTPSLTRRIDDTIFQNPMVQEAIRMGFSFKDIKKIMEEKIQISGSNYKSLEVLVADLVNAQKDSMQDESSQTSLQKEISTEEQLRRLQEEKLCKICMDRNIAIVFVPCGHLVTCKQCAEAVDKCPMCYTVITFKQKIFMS
- TEST: XIAP binders, primary screen, biophysical, small-molecule microarray, fluorescence 635 nm (AID 1181);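 further: score merges 667 nm emission and signal to noise over triplicate slides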
- MEASUREMENT_PARAMETERS: small-molecule microarray binding, higher = more signal
Label rule, in plain words: composite z-score of -0.03 and up is condition met, under -0.03 is condition not met.

COMPOUND_STRUCTURE_STRING | TARGET_ENTITY | QUALITATIVE_LABEL
COc1ccc(OC[C@@H](CO)OC)cc1 | E3 ubiquitin-protein ligase XIAP (Homo sapiens) (UniProt P98170) | condition not met
COC(=O)[C@@H]1CC[C@H](C)[C@@H](c2ccc(Br)cc2)N1C(=O)C(F)(F)F | E3 ubiquitin-protein ligase XIAP (Homo sapiens) (UniProt P98170) | condition met
Cc1ccc(C(C)C)n1C(=O)OC(C)(C)C | E3 ubiquitin-protein ligase XIAP (Homo sapiens) (UniProt P98170) | condition not met
COc1ccc(O[C@H]2C=C[C@@H](c3ccccc3)O[C@@H]2COC(=O)NCc2cccc3ccccc23)cc1 | E3 ubiquitin-protein ligase XIAP (Homo sapiens) (UniProt P98170) | condition not met
CCc1cc2c(nc1CC)CCN(CCC(C)=NO[C@@H]1O[C@H](COC(C)=O)[C@@H](OC(C)=O)[C@H](OC(C)=O)[C@H]1OC(C)=O)C2 | E3 ubiquitin-protein ligase XIAP (Homo sapiens) (UniProt P98170) | condition met
CO[C@@H]1C=CCC(=O)N[C@@H](C)C(=O)OC[C@@H](NS(=O)(=O)c2ccc(C)cc2)[C@H](C)C=CCC(=O)OC[C@H]1C | E3 ubiquitin-protein ligase XIAP (Homo sapiens) (UniProt P98170) | condition met

Item COc1ccc(COC(=O)NN=C2C[C@@H](O)[C@@H](O)[C@@H]3[C@@H]4C(=O)N(C(C)(C)C)C(=O)[C@@H]4CC[C@@H]23)cc1 with composite z-score of -0.03 or above?
condition not met

Item C[C@@H]1CC[C@@H](C(=O)O)N[C@H]1c1cccc(N2CCOCC2)c1 with composite z-score of -0.03 or above?
condition met

Item C[C@@H](c1ccccc1)N1C(=O)[C@H]2[C@H]3[C@H](O)[C@H](O)CC(=NOCc4ccccc4)[C@@H]3CC[C@H]2C1=O with composite z-score of -0.03 or above?
condition not met
